# system: ZAP-70 (Homo sapiens, UniProt P43403)
# Construct: purchased Upstate (Charlottesville, Va.)
# Sequence (P43403 1-619): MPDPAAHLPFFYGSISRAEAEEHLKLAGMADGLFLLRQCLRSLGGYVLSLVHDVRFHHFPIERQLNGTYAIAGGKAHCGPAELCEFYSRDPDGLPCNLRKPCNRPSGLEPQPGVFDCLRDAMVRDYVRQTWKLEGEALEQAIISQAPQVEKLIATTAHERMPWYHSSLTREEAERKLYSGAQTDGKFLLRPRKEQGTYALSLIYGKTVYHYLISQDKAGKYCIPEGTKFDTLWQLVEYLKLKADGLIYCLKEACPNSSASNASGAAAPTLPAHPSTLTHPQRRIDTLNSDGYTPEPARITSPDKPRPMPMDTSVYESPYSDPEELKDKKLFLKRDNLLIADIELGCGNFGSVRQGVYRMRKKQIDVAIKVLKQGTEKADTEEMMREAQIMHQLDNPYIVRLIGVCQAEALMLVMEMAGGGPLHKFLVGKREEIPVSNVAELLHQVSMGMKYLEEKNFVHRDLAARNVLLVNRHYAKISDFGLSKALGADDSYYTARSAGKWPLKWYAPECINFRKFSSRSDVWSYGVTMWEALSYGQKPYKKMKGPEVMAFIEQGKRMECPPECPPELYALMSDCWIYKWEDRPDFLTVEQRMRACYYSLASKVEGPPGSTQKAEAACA
# method: Broad selectivity panel, 32P incorporation
# Type: biochemical
# appliedConditions: 1 μM compound, 40 μM ATP; read-out: Percent inhibition ZAP-70
measuredQuantity: inhibition at 1 µM (%)

>>> df
                                inputsmiles                                 system  valueunit  reported
0  CC(=O)N1CCC(Nc2nccc(-c3c(-c4ccc(F)cc4)nc4occn34)n2)CC1  ZAP-70 (Homo sapiens, UniProt P43403)          %        18
1  Fc1ccc(-c2nc3occn3c2-c2ccnc(N[C@@H]3CN4CCC3CC4)n2)cc1  ZAP-70 (Homo sapiens, UniProt P43403)          %         4
2  Fc1ccc(-c2nc3occn3c2-c2ccnc(N[C@H]3CN4CCC3CC4)n2)cc1  ZAP-70 (Homo sapiens, UniProt P43403)          %       -14
3  CS(=O)(=O)N1CCC(Nc2nccc(-c3c(-c4ccc(F)cc4)nc4occn34)n2)CC1  ZAP-70 (Homo sapiens, UniProt P43403)          %        -1
4  Fc1ccc(-c2nc3occn3c2-c2ccnc(NC3CCNCC3)n2)cc1  ZAP-70 (Homo sapiens, UniProt P43403)          %         9
5  CN1[C@@H]2CC[C@H]1C[C@@H](Nc1nccc(-c3c(-c4ccc(F)cc4)nc4occn34)n1)C2  ZAP-70 (Homo sapiens, UniProt P43403)          %        30
6  CN(C)CC(C)(C)CNc1nccc(-c2c(-c3ccc(F)cc3)nc3occn23)n1  ZAP-70 (Homo sapiens, UniProt P43403)          %        -9

The reported numbers originate from patent US20070270418A1.
